test system: A-375; test: Antiproliferative activity against human A375 cells after 48 hrs by MTT assay; format: functional, cell-based; details: A-375, 48 h
result.type: IC50 (µM)
The figure you give is taken to be in µM; do not add the unit.

Worked examples follow.
CNC(=O)c1ccc(OC)c(OCCN(C)C)c1-c1c(C(=O)NC)ccc(OC)c1OCC(=O)Nc1ccc(F)c(Cl)c1: 242
CNC(=O)c1ccc(OC)c(OCCN2CCOCC2)c1-c1c(C(=O)NC)ccc(OC)c1OCC(=O)Nc1ccc(F)c(Cl)c1: 25.1
CNC(=O)c1ccc(OC)c(O)c1-c1c(C(=O)NC)ccc(OC)c1OCCN1CCOCC1: 174
CNC(=O)c1ccc(OC)c(O)c1-c1c(C(=O)NC)ccc(OC)c1O: 106

Now let's try a different one.
Exam item: For the compound shown here, CNC(=O)c1ccc(OC)c(O)c1-c1c(C(=O)NC)ccc(OC)c1OCC(=O)Nc1ccc(F)c(Cl)c1 , give the reported IC50.
Marked response: 217
